molecular target: UniProt:P17066; assay: Induction of […] (unknown origin)-mediated heat shock response expressed in human 293T cells coexpressing GFP assessed as heat shock index after overnight incubation by luciferase reporter gene assay relative to control; format: cell-based
Sequence (P17066 whole entry): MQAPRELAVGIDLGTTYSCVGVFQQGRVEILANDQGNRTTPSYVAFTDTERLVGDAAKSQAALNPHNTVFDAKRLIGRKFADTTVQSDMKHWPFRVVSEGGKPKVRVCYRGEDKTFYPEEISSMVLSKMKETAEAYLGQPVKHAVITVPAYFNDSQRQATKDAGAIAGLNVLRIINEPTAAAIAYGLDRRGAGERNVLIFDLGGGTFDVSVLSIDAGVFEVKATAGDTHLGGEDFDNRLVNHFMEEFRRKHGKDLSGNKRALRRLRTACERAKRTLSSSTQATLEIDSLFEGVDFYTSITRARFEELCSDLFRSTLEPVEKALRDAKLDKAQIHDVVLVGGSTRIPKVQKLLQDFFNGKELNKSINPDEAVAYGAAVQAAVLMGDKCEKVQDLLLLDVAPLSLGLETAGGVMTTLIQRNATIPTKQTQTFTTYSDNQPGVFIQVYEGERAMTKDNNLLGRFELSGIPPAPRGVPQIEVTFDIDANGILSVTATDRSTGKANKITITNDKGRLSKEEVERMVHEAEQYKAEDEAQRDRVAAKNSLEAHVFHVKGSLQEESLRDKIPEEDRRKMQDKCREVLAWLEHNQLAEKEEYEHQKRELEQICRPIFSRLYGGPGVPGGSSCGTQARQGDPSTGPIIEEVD

smiles	systemTested	Activity
CC(=O)OCC1=C(C)C[C@H]([C@@H](C)[C@H]2CC[C@H]3[C@@H]4C[C@H]5O[C@]56[C@H](O)C=CC(=O)[C@]6(C)[C@H]4CC[C@]23C)OC1=O	UniProt:P17066	Dose-dependent effect
CC1=C(CO)C(=O)O[C@@H]([C@@H](C)[C@H]2CC[C@H]3[C@@H]4C[C@H]5O[C@]56[C@@H](O)C=CC(=O)[C@]6(C)[C@H]4CC[C@]23C)C1	UniProt:P17066	Dose-dependent effect
CC(=O)OCC1=C(C)C[C@H]([C@@H](C)[C@H]2CC[C@H]3[C@@H]4C[C@H]5O[C@]56[C@@H](OC(C)=O)C=CC(=O)[C@]6(C)[C@H]4C[C@@H](OC(C)=O)[C@]23C)OC1=O	UniProt:P17066	Dose-dependent effect
CC(=O)OCC1=C(C)C[C@H]([C@@H](C)[C@H]2CC[C@H]3[C@@H]4C[C@H]5O[C@]56[C@@H](O)C=CC(=O)[C@]6(C)[C@H]4CC[C@]23C)OC1=O	UniProt:P17066	Dose-dependent effect

====

Can you tell me pIC50 for the items I'm about to list?
experiment: Cytotoxicity against human NCI-H929 cells after 3 days by Alamar blue assay; format: functional, cell-based; settings: NCI-H929, 72 h
pIC50: −log10 of the molar value.

Exercise: Entry CC1=C(CO)C(=O)OC([C@@H](C)C2CCC3C4C(CC[C@@]32C)[C@@]2(C)C(=O)C=CC[C@]2(O)[C@H]2O[C@@H]42)C1 (some centres not stated) : reported pIC50 = ?
Solution: < 5.00

Exercise: Quick one: `CC(=O)OCC1=C(C)C[C@H]([C@@H](C)[C@H]2CC[C@H]3[C@@H]4[C@@H]5O[C@@H]5[C@@]5(O)CC=CC(=O)[C@]5(C)[C@H]4CC[C@]23C)OC1=O`
Solution: < 5.00

Exercise: Quick one: CC1=C(C)C(=O)O[C@@H]([C@](C)(O)[C@H]2CC[C@H]3[C@@H]4[C@@H]5O[C@@H]5[C@@]5(O)CC=CC(=O)[C@]5(C)[C@H]4CC[C@]23C)C1 [WITHANOLIDE A]
Solution: < 5.00

Exercise: Quick one: `CC1=C(CO)C(=O)O[C@@H]([C@@H](C)[C@H]2CC[C@H]3[C@@H]4C[C@@H](O)[C@@]5(O)CC=CC(=O)[C@]5(C)[C@H]4CC[C@]23C)C1`
Solution: < 5.00

Exercise: Quick one: `CC1=C(CO)C(=O)O[C@@H]([C@@H](C)[C@H]2CC[C@H]3[C@@H]4C[C@H]5O[C@]56[C@@H](O)[C@@H](O)CC(=O)[C@]6(C)[C@H]4CC[C@]23C)C1`
Solution: < 5.00

Exercise: Quick one: `CC1=C(CO)C(=O)O[C@@H]([C@@H](C)[C@H]2CC[C@H]3[C@@H]4C[C@H](O)[C@]5(O)[C@@H](O)C=CC(=O)[C@]5(C)[C@H]4CC[C@]23C)C1`
Solution: < 5.00

Exercise: Quick one: `CC(=O)OCC1=C(C)C[C@H]([C@@H](C)[C@H]2CC[C@H]3[C@@H]4C[C@@H](OC(C)=O)[C@@]5(O)CC=CC(=O)[C@]5(C)[C@H]4CC[C@]23C)OC1=O`
Solution: < 5.00

====

molecular target: Heat shock 70 kDa protein 6 (Homo sapiens); test: Induction of […] (unknown origin)-mediated heat shock response expressed in human 293T cells coexpressing GFP assessed as heat shock index after overnight incubation by luciferase reporter gene assay relative to control; type: cell-based
readout: fold change (FC)

Exercise: Entry `CC(=O)OCC1=C(C)C[C@H]([C@@H](C)[C@H]2CC[C@H]3[C@@H]4C[C@H]5O[C@]56[C@@H](O)[C@@H](OS(=O)(=O)O)CC(=O)[C@]6(C)[C@H]4CC[C@]23C)OC1=O` : reported fold change (FC) = ?
Solution: 0.36

Exercise: Quick one: `CCCCO[C@H]1CC(=O)[C@]2(C)[C@H]3CC[C@]4(C)[C@@H]([C@H](C)[C@H]5CC(C)=C(CO)C(=O)O5)CC[C@H]4[C@@H]3C[C@H]3O[C@]32[C@H]1O`
Solution: 0

Exercise: Quick one: `CC(=O)OCC1=C(C)C[C@H]([C@@H](C)[C@H]2CC[C@H]3[C@@H]4C[C@H]5O[C@]56[C@@H](OC(C)=O)[C@@H](OS(=O)(=O)O)CC(=O)[C@]6(C)[C@H]4CC[C@]23C)OC1=O`
Solution: 0.78

Exercise: Quick one: `CC1=C(CO)C(=O)O[C@@H]([C@@H](C)[C@H]2CC[C@H]3[C@@H]4CC=C5[C@@H](O)C=CC(=O)[C@]5(C)[C@H]4CC[C@]23C)C1`
Solution: 0

Exercise: Quick one: `CC1=C(CO)C(=O)O[C@@H]([C@@H](C)[C@H]2CC[C@H]3[C@@H]4C[C@H]5O[C@]56[C@@H](O)[C@@H](n5cnc7c(N)ncnc75)CC(=O)[C@]6(C)[C@H]4CC[C@]23C)C1`
Solution: 0

Exercise: Quick one: `CC1=C(COS(=O)(=O)O)C(=O)O[C@@H]([C@@H](C)[C@H]2CC[C@H]3[C@@H]4C[C@H]5O[C@]56[C@@H](OS(=O)(=O)O)C=CC(=O)[C@]6(C)[C@H]4CC[C@]23C)C1`
Solution: 0

Exercise: Quick one: `CC1=C(CO)C(=O)O[C@@H]([C@@H](C)[C@H]2C[C@@H](O)[C@H]3[C@@H]4C[C@H]5O[C@]56[C@@H](O)C=CC(=O)[C@]6(C)[C@H]4CC[C@@]32C)C1`
Solution: 0

Exercise: Quick one: `CC(=O)OCC1=C(C)C[C@H]([C@@H](C)[C@H]2CC[C@H]3[C@@H]4C[C@H](OC(C)=O)[C@]5(O)[C@@H](OC(C)=O)C=CC(=O)[C@]5(C)[C@H]4CC[C@]23C)OC1=O`
Solution: 0.74
